- Subject of test: BRAF^V600E (Homo sapiens (Human), UniProt P15056, V600E)
- Sequence (P15056 whole entry V600E): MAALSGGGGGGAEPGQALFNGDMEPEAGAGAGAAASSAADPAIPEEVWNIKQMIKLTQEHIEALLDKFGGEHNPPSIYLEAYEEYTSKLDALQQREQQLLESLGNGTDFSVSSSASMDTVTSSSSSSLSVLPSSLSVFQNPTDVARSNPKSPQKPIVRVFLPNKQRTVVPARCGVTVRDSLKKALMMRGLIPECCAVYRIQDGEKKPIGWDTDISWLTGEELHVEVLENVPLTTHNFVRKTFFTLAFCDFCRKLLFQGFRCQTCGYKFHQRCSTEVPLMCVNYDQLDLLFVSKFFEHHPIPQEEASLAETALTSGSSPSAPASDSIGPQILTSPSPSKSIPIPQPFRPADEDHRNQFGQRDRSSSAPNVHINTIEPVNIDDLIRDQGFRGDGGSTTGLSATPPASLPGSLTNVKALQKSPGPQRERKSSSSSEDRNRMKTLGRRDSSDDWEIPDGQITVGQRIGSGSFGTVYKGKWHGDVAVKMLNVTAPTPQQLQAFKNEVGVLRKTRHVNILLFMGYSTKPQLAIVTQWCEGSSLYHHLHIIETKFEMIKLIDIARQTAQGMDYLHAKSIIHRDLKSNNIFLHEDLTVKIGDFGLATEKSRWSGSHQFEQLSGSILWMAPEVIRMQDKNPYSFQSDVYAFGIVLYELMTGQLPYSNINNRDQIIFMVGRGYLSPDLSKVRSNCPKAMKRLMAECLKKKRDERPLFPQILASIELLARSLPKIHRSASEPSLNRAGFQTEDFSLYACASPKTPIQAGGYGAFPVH
- Protocol notes: BRAF^V600E enzymatic activity assay (LanthaScreen kinase assay)
- Format: biochemical
- Measurement conditions: LanthaScreen TR-FRET, ATP 2 μM, 60 minutes, room temperature; read-out: BRAF^V600E Lantha IC50
Recorded measurements of IC50, one per entry
Give the quantity in nM, number only.

CC(C)CC1(C)OC(c2ccnc(NC[C@@H]3CCCN3)n2)=C(c2cccc(NS(=O)(=O)c3c(F)cccc3F)c2F)C1=O (stereo partly shown) [Example 9]	2000

Inquiry: Hi! What's the reported IC50 for COC(=O)N[C@@H](C)CNc1nccc(C2=C(c3cccc(NS(=O)(=O)c4c(F)cccc4F)c3F)C(=O)C(C)(C)O2)n1 [Example 2] on BRAF^V600E (Homo sapiens (Human), UniProt P15056, V600E)?
Reply text: 97

Inquiry: Observed IC50 on BRAF^V600E (Homo sapiens (Human), UniProt P15056, V600E) for C[C@H](O)CNc1nccc(C2=C(c3cc(Cl)cc(NS(=O)(=O)c4cc(F)ccc4F)c3F)C(=O)C(C)(C)O2)n1 [Example 24] , please.
Reply text: 24

Inquiry: Any idea what IC50 came out for CC(C)CC1(C)OC(c2ccnc(NCCC#N)n2)=C(c2cccc(NS(=O)(=O)c3c(F)cccc3F)c2F)C1=O (stereo not shown) [Example 6] on BRAF^V600E (Homo sapiens (Human), UniProt P15056, V600E)?
Reply text: 9.6

Inquiry: So what IC50 did CC(C)CC1(C)OC(c2ccnc(N)n2)=C(c2cc(Cl)cc(NS(=O)(=O)c3c(F)cccc3F)c2F)C1=O (stereo not shown) [Example 19] get with BRAF^V600E (Homo sapiens (Human), UniProt P15056, V600E)?
Reply text: 27

Inquiry: Given the entry Nc1nccc(C2=C(c3cc(Cl)cc(NS(=O)(=O)c4c(F)cccc4F)c3F)C(=O)C3(CCCC3)O2)n1 [Example 29] , what IC50 was observed with BRAF^V600E (Homo sapiens (Human), UniProt P15056, V600E)?
Reply text: 1.3

Inquiry: # value lookup — system BRAF^V600E (Homo sapiens (Human), UniProt P15056, V600E), readout IC50, item COC(=O)N[C@@H](C)CNc1nccc(C2=C(c3cccc(NS(=O)(=O)c4c(F)cccc4F)c3F)C(=O)C(C)(CC(C)C)O2)n1 (stereo partly shown) [Example 7]
Reply text: 27

---

- Subject of test: BRAF^V600E (Homo sapiens (Human), UniProt P15056, V600E)
- Protocol notes: BRAF^V600E enzymatic activity assay (LanthaScreen kinase assay)
- Type: biochemical
- Measurement conditions: LanthaScreen TR-FRET, ATP 2 μM, 60 minutes, room temperature; read-out: BRAF^V600E Lantha IC50
Measured pIC50 accompanies every entry in the list below.
Remember the convention: pIC50 equals -log10 of concentration in molar.

Inquiry: Consider the compound shown here: CCCS(=O)(=O)Nc1cc(Cl)cc(C2=C(c3ccnc(N)n3)OC(C)(CC(C)C)C2=O)c1F (stereo not shown) What is its recorded pIC50?
Reply text: 7.15

---

- Subject of test: BRAF^V600E (Homo sapiens (Human), UniProt P15056, V600E)
- Protocol notes: BRAF^V600E enzymatic activity assay (LanthaScreen kinase assay)
- Measurement conditions: LanthaScreen TR-FRET, ATP 2 μM, 60 minutes, room temperature; read-out: BRAF^V600E Lantha IC50
Measured quantity: pIC50
Value format note: pIC50 is -log10 of concentration (mol/L); just state the number.

CC1(C)OC(c2ccnc(NCCO)n2)=C(c2cc(Cl)cc(NS(=O)(=O)c3cc(F)ccc3F)c2F)C1=O [Example 25]	7.96

Inquiry: Name the recorded pIC50 for CC1(C)OC(c2ccnc(NCCC#N)n2)=C(c2cc(Cl)cc(NS(=O)(=O)c3cc(F)ccc3F)c2F)C1=O [Example 23] .
Reply text: 7.89

Inquiry: What value of measured pIC50 is listed for CC1(C)OC(c2ccnc(N)n2)=C(c2cc(Cl)cc(NS(=O)(=O)c3ccccc3F)c2F)C1=O [Example 15] ?
Reply text: 8.60

Inquiry: Would you mind telling me what pIC50 value was observed for CC1(C)OC(c2ccnc(N)n2)=C(c2cc(Cl)cc(NS(=O)(=O)c3cc(F)ccc3F)c2F)C1=O [Example 12] ?
Reply text: 9.22

Inquiry: If you can, please state the reported pIC50 value of CC1(C)OC(c2ccnc(NCCC#N)n2)=C(c2cccc(NS(=O)(=O)c3c(F)cccc3F)c2F)C1=O [Example 3] .
Reply text: 7.89

---

The entries below come with measured IC50 values attached.
- Subject of test: BRAF^V600E (Homo sapiens (Human), UniProt P15056, V600E)
- Protocol notes: BRAF^V600E enzymatic activity assay (LanthaScreen kinase assay)
- Measurement conditions: LanthaScreen TR-FRET, ATP 2 μM, 60 minutes, room temperature; read-out: BRAF^V600E Lantha IC50
- Method: BRAF^V600E enzymatic activity assay: The BRAF^V600E enzymatic assay was performed using a LanthaScreen kinase assay kit purchased from Life Technologies (Grand Island, N.Y.). The assay was conducted according to the procedure provided in the assay kit. […] The final reaction volume for each reaction was 10 μl. […] IC50 value was calculated using appropriate programs in GraphPad Prism by plotting the logarithm of the concentration versus percent inhibition.
Write the number in nM without appending the unit.

Here is how some compounds turned out for IC50.
CC1(C)OC(c2ccnc(NCCC#N)n2)=C(c2cc(Cl)cc(NS(=O)(=O)c3c(F)cccc3F)c2F)C1=O [Example 21]	2.5
CCNc1nccc(C2=C(c3cc(Cl)cc(NS(=O)(=O)c4cc(F)ccc4F)c3F)C(=O)C(C)(C)O2)n1 [Example 27]	2.8
COCCNc1nccc(C2=C(c3cc(Cl)cc(NS(=O)(=O)c4cc(F)ccc4F)c3F)C(=O)C(C)(C)O2)n1 [Example 26]	50

Inquiry: Need IC50, item Nc1nccc(C2=C(c3cccc(NS(=O)(=O)c4c(F)cccc4F)c3Cl)C(=O)C3(CCCC3)O2)n1 [Example 17]
Reply text: 3.7

Inquiry: # query: IC50 of entry CC1(C)OC(c2ccnc(N)n2)=C(c2cc(Cl)cc(NS(=O)(=O)c3cccc(F)c3)c2F)C1=O [Example 14]
Reply text: 1.2

Inquiry: For COC(=O)N[C@@H](C)CNc1nccc(C2=C(c3cc(Cl)cc(NS(=O)(=O)c4cc(F)ccc4F)c3F)C(=O)C(C)(C)O2)n1 [Example 22] , what is its reported IC50?
Reply text: 50

---

- Subject of test: BRAF^V600E (Homo sapiens (Human), UniProt P15056, V600E)
- Protocol notes: BRAF^V600E enzymatic activity assay (LanthaScreen kinase assay)
- Measurement conditions: LanthaScreen TR-FRET, ATP 2 μM, 60 minutes, room temperature; read-out: BRAF^V600E Lantha IC50
Recorded measurements of IC50, one per entry
// return numeric value only (unit: nM, not printed)

Past entries and their recorded results:
CC(C)CC1(C)OC(c2ccnc(NCCC#N)n2)=C(c2cc(Cl)cc(NS(=O)(=O)c3c(F)cccc3F)c2F)C1=O (stereo not drawn) [Example 20]	29
CC(C)CC1(C)OC(c2ccnc(N)n2)=C(c2cccc(NS(=O)(=O)c3c(F)cccc3F)c2F)C1=O (stereo not drawn) [Example 5]	92
Nc1nccc(C2=C(c3cc(Cl)cc(NS(=O)(=O)c4cc(F)ccc4F)c3F)C(=O)C3(CCCC3)O2)n1 [Example 28]	2.6
Nc1nccc(C2=C(c3cc(Cl)cc(NS(=O)(=O)c4c(F)cccc4F)c3Cl)C(=O)C3(CCCC3)O2)n1 [Example 18]	2.4
CC(C)CC1(C)OC(c2ccnc(NCC3CCCO3)n2)=C(c2cccc(NS(=O)(=O)c3c(F)cccc3F)c2F)C1=O (stereo not drawn) [Example 10]	750

From here, focus on the item given below.
Inquiry: Data request, read-out IC50, for CC(C)CC1(C)OC(c2ccnc(NCc3nccs3)n2)=C(c2cccc(NS(=O)(=O)c3c(F)cccc3F)c2F)C1=O (stereo not drawn) [Example 8]
Reply text: 260

The measured values listed here are drawn from patent US9458140B2.
